- systemName: T1, human PTPRG on the cell surface (U937 cells, HEL cells) (human, UniProt P23470 20-1445)
- T1 construct: Endogenous PTPRG of human AML cell lines
- T1 sequence (P23470 20-1445): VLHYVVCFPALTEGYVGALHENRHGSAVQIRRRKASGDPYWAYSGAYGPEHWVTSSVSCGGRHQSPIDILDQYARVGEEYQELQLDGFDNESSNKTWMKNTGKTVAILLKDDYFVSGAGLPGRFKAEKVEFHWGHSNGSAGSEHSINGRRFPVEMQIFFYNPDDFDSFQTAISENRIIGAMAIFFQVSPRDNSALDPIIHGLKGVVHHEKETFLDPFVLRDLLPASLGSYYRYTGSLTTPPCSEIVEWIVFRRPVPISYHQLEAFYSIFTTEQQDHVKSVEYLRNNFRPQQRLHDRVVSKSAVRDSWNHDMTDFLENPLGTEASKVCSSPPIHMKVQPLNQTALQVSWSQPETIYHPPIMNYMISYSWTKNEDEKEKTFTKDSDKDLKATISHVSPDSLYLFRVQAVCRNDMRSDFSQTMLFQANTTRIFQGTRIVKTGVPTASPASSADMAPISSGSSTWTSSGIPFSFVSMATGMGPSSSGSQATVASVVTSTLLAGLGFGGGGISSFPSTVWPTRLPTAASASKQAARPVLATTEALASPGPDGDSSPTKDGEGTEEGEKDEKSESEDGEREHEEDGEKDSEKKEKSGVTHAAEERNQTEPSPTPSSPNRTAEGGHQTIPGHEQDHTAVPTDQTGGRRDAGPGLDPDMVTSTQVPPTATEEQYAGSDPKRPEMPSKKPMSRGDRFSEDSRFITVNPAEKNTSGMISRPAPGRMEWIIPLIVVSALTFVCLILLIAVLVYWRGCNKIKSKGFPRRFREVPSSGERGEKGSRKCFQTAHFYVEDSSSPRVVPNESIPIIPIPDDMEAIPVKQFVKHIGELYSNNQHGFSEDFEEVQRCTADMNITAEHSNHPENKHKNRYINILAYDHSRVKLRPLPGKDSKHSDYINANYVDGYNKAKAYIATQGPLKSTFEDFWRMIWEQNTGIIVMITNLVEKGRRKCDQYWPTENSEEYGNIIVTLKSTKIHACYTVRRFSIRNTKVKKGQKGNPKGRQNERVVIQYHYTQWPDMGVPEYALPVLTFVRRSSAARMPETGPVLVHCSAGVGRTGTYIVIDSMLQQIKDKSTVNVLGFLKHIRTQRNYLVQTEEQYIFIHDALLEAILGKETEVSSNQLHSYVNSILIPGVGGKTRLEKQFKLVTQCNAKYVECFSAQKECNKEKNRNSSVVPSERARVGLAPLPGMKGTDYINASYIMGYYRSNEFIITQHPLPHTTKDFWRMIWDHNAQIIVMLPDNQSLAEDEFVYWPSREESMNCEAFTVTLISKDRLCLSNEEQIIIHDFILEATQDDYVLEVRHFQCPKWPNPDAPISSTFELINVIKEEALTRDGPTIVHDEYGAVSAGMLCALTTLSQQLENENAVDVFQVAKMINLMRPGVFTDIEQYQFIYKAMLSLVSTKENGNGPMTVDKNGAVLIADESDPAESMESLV
- protocolSummary: flow cytometry on whole U937 cells, screen of the 28 clones (Ctrl row = 0); PTPRG is named as the antigen on U937 cells only in the later examples
Measured flow cytometry binding value (the table prints no name or unit), listed per entry.
Number only, please.

See these solved cases before continuing.
Fab_3208 (Fab, V domains shown, Chimeric rabbit/human Fab; also called P3208; clone 3208) VH: AQSVKESEGGLFKPTDTLTLTCTVSGFSLSSYAISWVRRAPGNGLEWIGAIAGYGDAYYASWAKSRSTITRNTNENTVTLKMTSLTAADTATYFCARDDYNVDTGIWGPGTLVTISS VL: SFVLTQPASVQVNLGQTVSLTCTADTLSRRYASWYQQKPGQAPVLLIYRDTSRPSGVPDRFSGSSSGNTATLTISGAQAGDEADYYCATGDGSGSSYQYVFGGGTQLTVTG :: 92.7
Fab_11 (Fab, V domains shown, Chimeric rabbit/human Fab; also called P11; mAb_11) VH: AQSLEESGGRLVTPGTPLTLTCTVSGFSLSSYAMTWVRQAPGEGLEWIGTIGAGGSPYYASWAKGRFTISKTATTVNLKIISPTTEDTATYFCAREGGGSYYFDLWGPGTLVTVSS VL: SFVLTQPASVQVNLGQTVSLTCTADTLSRSYASWYQQKPGQAPVLLIYRDTSRPSGVPDRFSGSSSGNTATLTISGAQAGDEADYYCATSDGSGSTFHFVFGGGTQLTVTG :: 92.9

Let's switch to this binder now.
Prompt: Could you tell me which flow cytometry binding value (the table prints no name or unit) is on file for Fab_28 (Fab, V domains shown, Chimeric rabbit/human Fab; also called P28; clone 28) VH: AQSVEESGGRLVTPGIPLTLTCTVSGFSLNNYAMSWVRQAPGKGLEWIGMIDSGGAAYYATWARGRFTISRTSTTVDLKITSPTTEDTATYFCARELSSLYGAFDPWGPGTLVTVSS VL: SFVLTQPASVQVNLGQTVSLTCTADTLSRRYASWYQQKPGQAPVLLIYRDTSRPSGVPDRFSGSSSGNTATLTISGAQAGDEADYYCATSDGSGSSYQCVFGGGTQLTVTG ?
Response: 87.5
